Items are presented alongside their recorded Relative Affinity.
measured-on: T1, sIL-6R (soluble IL-6 receptor; SBH Sciences) (human, UniProt P08887 20-365)
T1 construct: also called human IL-6R
T1 sequence: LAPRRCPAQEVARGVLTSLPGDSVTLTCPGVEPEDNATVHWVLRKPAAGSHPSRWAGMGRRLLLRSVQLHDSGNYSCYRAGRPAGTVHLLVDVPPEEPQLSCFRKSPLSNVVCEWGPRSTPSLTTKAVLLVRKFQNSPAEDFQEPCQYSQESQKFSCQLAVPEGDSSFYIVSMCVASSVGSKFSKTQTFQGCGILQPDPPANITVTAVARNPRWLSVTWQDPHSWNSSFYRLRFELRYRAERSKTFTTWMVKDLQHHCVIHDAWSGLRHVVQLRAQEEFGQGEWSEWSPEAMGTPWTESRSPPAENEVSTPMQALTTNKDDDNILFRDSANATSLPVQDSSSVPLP
procedure-text: SPR (BIAcore 3000), antibody on chip, sIL-6R analyte, 25 C
Description: All SPR measurements were performed on a BIAcore 3000 instrument (GE Biosciences, Piscataway, N.J.). BIAcore Software-BIAcore 3000 Control Software V3.2 was used for the operation and control of the BIAcore 3000 instrument. […] Data was analyzed by using the Kinetics Wizard and the manual fitting programs that are both included with the BiaEvaluation Software V4.1.

Use these answered entries as a reference point.
- binder: "203# (antibody, human IgG1, kappa, V domains shown, also called Sample # 203) VH: QVQLQESGPGLVRPSQTLSLTCTVSGYSITSDHAWSWVRQPPGRGLEWIGYISYSGITTYNPSLKSRVTMLRDTSKNQFSLRLSSVTAADTAVYYCARCLARMTAMDYWGQGSLVTVSS VL: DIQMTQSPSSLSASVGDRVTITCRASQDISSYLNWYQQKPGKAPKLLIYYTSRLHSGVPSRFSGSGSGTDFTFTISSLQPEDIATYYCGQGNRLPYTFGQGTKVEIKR"
  Relative Affinity: "8.5 fold vs 25 (Tocilizumab)"
- binder: "68# (antibody, human IgG1, kappa, V domains shown, also called Sample # 68) VH: QVQLQESGPGLVRPSQTLSLTCTVSGYSITSDHAWSWVRQPPGRGLEWIGFISYSGMTTYNPSLKSRVTMLRDTSKNQFSLRLSSVTAADTAVYYCARCLARITAIDYFGQGSLVTVSS VL: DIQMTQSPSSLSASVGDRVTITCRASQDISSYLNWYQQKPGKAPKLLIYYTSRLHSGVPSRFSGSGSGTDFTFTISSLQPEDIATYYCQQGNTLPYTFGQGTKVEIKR"
  Relative Affinity: "96.3 fold vs 25 (Tocilizumab)"

Attention now turns to another entry.
So what's the measured Relative Affinity for this one? 205# (antibody, human IgG1, kappa, V domains shown) VH: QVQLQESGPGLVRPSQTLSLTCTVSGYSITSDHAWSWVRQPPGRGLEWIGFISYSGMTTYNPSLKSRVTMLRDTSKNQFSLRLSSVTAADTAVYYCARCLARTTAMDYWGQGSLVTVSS VL: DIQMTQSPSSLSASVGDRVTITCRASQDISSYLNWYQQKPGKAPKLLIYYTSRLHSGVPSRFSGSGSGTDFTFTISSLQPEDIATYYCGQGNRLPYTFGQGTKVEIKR
234 fold vs 25 (Tocilizumab)
